Task for the reader: assign each of the following variants its reported protein stability index.
B1: FCHSD1 (parent)
chain: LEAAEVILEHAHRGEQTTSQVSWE

Variants of: B1
TEST_SUMMARY: protein stability index of a GFP-peptide fusion (GPS, HEK-293T) (PSI 1-6); higher = more stable;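 further: lentivirally expressed fusions sorted by FACS into six bins by GFP to DsRed ratio, PSI derived from sequencing read proportions per bin multiplied by bin number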
APPLIED_CONDITIONS: c terminus: a fixed tail appended

// for each variant in input: emit protein stability index
1. H10M
2. Q20H
3. G14S
4. S19Q
5. A11T
6. Q20D
7. R13C
8. S19C

Found:
1. 3.15
2. 4.2
3. 4.46
4. 4.89
5. 3.04
6. 5.02
7. 3.5
8. 3.3

// for each variant in input: emit protein stability index
1. Q16D
2. A3Q
3. E9K
4. T18P
5. R13N
6. V21P

Found:
4.9
4.79
4.19
4.33
4.63
5.55

// for each variant in input: emit protein stability index
1. R13P
2. A3T
3. W23F
4. A4N
5. Q16V

Found:
4.9
4.49
4.64
4.52
4.13
